Ref: patent US7906310B2

Residual Enzyme Activity: recorded values
# assay.notes: Stability assay: residual activity after incubation with 1 mM inhibitor, measured by pNA assay
# Assay type: physicochemical
# Design: key: fraction of activity at 0 h incubation (0.80 = 80%)
# measurement.setup: incubation time 188.6 hours; 1 mM Cu2+; 25° C., pH 7, 0.1% K-sorbate; relative to 0 hours
Give only the figure.

Some solved entries appear below for comparison.
For Brachysporiella protease: protease from Brachysporiella gayana CGMCC 0865, amino acids 1-186 of SEQ ID NO: 14 (protein, listed as Brachysporiella gayana) MELTSLIAALAVILPIAYGVPMDATTNLSPKVLAAMKRDLGLDAREATARVTFERRAGDVIEELRSSLGDSFAGAWVTDGKVINIGVTDQALVSKVKEAGAEPMVMKNSLGKLQEAKKKLDQIIKEKPKTLSTSGKPGIATYYVDIETNKLIITALSTSITQAEDLAKEVGLSESEFEVRKTEKMP , what is its reported Residual Enzyme Activity?
0.984

For Protease 08: protease from Nocardiopsis alba DSM 15647, amino acids 1-188 of SEQ ID NO: 10 (protein, listed as Nocardiopsis alba) ATGPLPQSPTPDEAEATTMVEALQRDLGLSPSQADELLEAQAESFEIDEAATAAAADSYGGSIFDTDSLTLTVLVTDASAVEAVEAAGAEAKVVSHGMEGLEEIVADLNAADAQPGVVGWYPDIHSDTVVLEVLEGSGADVDSLLADAGVDTADVKVESTTEQPELYADIIGGLAYTMGGRCSVGFAA , what is its reported Residual Enzyme Activity?
0.703

For Protease 18: protease from Nocardiopsis dassonvillei subsp. dassonvillei DSM 43235, amino acids 1-188 of SEQ ID NO: 12 (protein, Nocardiopsis dassonvillei subspecies dassonvillei) APAPVPQTPVADDSAASMTEALKRDLDLTSAEAEELLSAQEAAIETDAEATEAAGEAYGGSLFDTETLELTVLVTDASAVEAVEATGAQATVVSHGTEGLTEVVEDLNGAEVPESVLGWYPDVESDTVVVEVLEGSDADVAALLADAGVDSSSVRVEEAEEAPQVYADIIGGLAYYMGGRCSVGFAAT , what is its reported Residual Enzyme Activity?
0.993

***
For Protease 35: protease from Nocardiopsis prasina DSM 15649, amino acids 1-188 of SEQ ID NO: 8 (protein, listed as Nocardiopsis prasina) ATGPLPQSPTPEADAVSMQEALQRDLGLTPLEADELLAAQDTAFEVDEAAAEAAGDAYGGSVFDTETLELTVLVTDSAAVEAVEATGAGTELVSYGITGLDEIVEELNAADAVPGVVGWYPDVAGDTVVLEVLEGSGADVGGLLADAGVDASAVEVTTTEQPELYADIIGGLAYTMGGRCSVGFAATN , what is its reported Residual Enzyme Activity?
0.733
